# protocolSummary: S. cerevisiae growth modulation with rapamycin, primary screen, strain BY4716, OD600, 96 h (AID 1091); further: test concentration not given here
# conditionInfo: higher = more signal, called active from +8 up or from −8 down
Decide by z-score: equal to or exceeding -0.3 means met, less means not met.

{"compound": "C=C[C@H](C)[C@@H](OC(=O)Nc1ccc(OC)cc1)c1ccc(O)c2ccccc12", "class": "not met"}
{"compound": "CC#CC(=O)Oc1ccccc1C=CC(=O)OCC", "class": "not met"}
{"compound": "C=CCNC(=O)[C@@H]1[C@H]2C(=O)O[C@H](c3ccccc3)[C@H](c3ccccc3)N2[C@H](c2ccccc2OCCO)[C@@]12C(=O)N(C(=O)OCCOC)c1ccccc12", "class": "met"}
{"compound": "CCCCCN1CC=CC23O[C@@H]4/C=C\\CCC(C)OC(=O)C4[C@H]2C(=O)N(C(C)CO)[C@@H]3C1=O (stereo partly drawn)", "class": "not met"}
{"compound": "CC(C)NC(=O)[C@@]1(c2ccc([N+](=O)[O-])cc2)CC(=O)N(C2CCCCC2)[C@@H]1c1ccc(CO)cc1I", "class": "met"}
{"compound": "COc1ccc(C(=O)Nc2ccc(CN3C(=O)[C@]4(O[C@H](CCO)[C@@H]([Si](C)(C)c5ccc(OC)cc5)[C@@H]4C)c4ccccc43)cc2)cc1", "class": "met"}
{"compound": "CCCCCCc1nc(-c2cc(C)c(OC)c(C)c2)cc2c1[Si](C(C)C)(C(C)C)OC2", "class": "met"}
{"compound": "C=CC[C@]1(C(=O)NCCCOC)N=C(c2ccc(OCCCO)cc2)O[C@H]1c1ccccc1CN=[N+]=[N-]", "class": "not met"}

====

# protocolSummary: splicing luciferase reporter signal modulators, primary screen, spliceosome inhibition project, cell-based, HEK293, splice +/- reporter (AID 1101);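 further: HEK293 cells carrying a splicing-competent luciferase reporter gene; test concentration not given here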
# conditionInfo: luminescence, 24 h, higher = more signal, called active from +8 up or from −8 down
resultType: z-score

{"compound": "C[N+](C)(C)CCCCNC(=O)[C@@H]1C[C@@H]2C(=O)N[C@@H](Cc3ccccc3)C(=O)N2[C@@H]1c1cccc(OCCO)c1", "reportedValue": -0.379}
{"compound": "O=C1C[C@@](C(=O)NCC(F)(F)F)(c2ccc([N+](=O)[O-])cc2)[C@@H](c2ccc(CO)cc2I)N1C1CCCCC1", "reportedValue": 0.0169}
{"compound": "COc1ccc(C#Cc2ccc3c(c2)[C@]2(C(=O)N3)[C@H](C(=O)NC[C@H](O)c3ccccc3)[C@H]3C(=O)O[C@H](c4ccccc4)[C@H](c4ccccc4)N3[C@@H]2c2ccc(O)cc2)cc1", "reportedValue": -0.993}
{"compound": "CCOC(=O)C1=CC[C@@H](c2ccccc2)N(S(=O)(=O)c2ccc(C)cc2)[C@H]1c1ccccc1C", "reportedValue": -0.876}
{"compound": "COC(=O)C(CC#Cc1ccc2c(c1)[C@]1(C(=O)N2)[C@H](C(=O)Nc2nc3ccccc3s2)[C@H]2C(=O)O[C@H](c3ccccc3)[C@H](c3ccccc3)N2[C@@H]1c1ccc(O)cc1)C(=O)OC", "reportedValue": -0.204}
{"compound": "CN1C=C(C(=O)OCCS(C)(=O)=O)C(C(=O)OCCS(C)(=O)=O)=CC(c2ccc(CO)cc2)=CC1C1CC1 (stereo not drawn)", "reportedValue": 0.456}
{"compound": "CC(C)(C)OC(=O)CC[C@]1(C(=O)N2CCOCC2)N=C(c2ccc(OCCCO)cc2)O[C@H]1c1ccccc1N=[N+]=[N-]", "reportedValue": -0.921}
{"compound": "COCCOC(=O)N1C(=O)[C@@]2(c3cc(C#CCC(C(=O)OC)C(=O)OC)ccc31)[C@H](c1ccccc1OCCO)N1[C@H](c3ccccc3)[C@H](c3ccccc3)OC(=O)[C@H]1[C@@H]2C(=O)N1CCN(c2ncccn2)CC1", "reportedValue": -0.397}

====

# targetOfAssay: Neurogenic locus notch homolog protein 3 (Homo sapiens) (UniProt Q9UM47)
# Sequence (Q9UM47 whole entry, looked up): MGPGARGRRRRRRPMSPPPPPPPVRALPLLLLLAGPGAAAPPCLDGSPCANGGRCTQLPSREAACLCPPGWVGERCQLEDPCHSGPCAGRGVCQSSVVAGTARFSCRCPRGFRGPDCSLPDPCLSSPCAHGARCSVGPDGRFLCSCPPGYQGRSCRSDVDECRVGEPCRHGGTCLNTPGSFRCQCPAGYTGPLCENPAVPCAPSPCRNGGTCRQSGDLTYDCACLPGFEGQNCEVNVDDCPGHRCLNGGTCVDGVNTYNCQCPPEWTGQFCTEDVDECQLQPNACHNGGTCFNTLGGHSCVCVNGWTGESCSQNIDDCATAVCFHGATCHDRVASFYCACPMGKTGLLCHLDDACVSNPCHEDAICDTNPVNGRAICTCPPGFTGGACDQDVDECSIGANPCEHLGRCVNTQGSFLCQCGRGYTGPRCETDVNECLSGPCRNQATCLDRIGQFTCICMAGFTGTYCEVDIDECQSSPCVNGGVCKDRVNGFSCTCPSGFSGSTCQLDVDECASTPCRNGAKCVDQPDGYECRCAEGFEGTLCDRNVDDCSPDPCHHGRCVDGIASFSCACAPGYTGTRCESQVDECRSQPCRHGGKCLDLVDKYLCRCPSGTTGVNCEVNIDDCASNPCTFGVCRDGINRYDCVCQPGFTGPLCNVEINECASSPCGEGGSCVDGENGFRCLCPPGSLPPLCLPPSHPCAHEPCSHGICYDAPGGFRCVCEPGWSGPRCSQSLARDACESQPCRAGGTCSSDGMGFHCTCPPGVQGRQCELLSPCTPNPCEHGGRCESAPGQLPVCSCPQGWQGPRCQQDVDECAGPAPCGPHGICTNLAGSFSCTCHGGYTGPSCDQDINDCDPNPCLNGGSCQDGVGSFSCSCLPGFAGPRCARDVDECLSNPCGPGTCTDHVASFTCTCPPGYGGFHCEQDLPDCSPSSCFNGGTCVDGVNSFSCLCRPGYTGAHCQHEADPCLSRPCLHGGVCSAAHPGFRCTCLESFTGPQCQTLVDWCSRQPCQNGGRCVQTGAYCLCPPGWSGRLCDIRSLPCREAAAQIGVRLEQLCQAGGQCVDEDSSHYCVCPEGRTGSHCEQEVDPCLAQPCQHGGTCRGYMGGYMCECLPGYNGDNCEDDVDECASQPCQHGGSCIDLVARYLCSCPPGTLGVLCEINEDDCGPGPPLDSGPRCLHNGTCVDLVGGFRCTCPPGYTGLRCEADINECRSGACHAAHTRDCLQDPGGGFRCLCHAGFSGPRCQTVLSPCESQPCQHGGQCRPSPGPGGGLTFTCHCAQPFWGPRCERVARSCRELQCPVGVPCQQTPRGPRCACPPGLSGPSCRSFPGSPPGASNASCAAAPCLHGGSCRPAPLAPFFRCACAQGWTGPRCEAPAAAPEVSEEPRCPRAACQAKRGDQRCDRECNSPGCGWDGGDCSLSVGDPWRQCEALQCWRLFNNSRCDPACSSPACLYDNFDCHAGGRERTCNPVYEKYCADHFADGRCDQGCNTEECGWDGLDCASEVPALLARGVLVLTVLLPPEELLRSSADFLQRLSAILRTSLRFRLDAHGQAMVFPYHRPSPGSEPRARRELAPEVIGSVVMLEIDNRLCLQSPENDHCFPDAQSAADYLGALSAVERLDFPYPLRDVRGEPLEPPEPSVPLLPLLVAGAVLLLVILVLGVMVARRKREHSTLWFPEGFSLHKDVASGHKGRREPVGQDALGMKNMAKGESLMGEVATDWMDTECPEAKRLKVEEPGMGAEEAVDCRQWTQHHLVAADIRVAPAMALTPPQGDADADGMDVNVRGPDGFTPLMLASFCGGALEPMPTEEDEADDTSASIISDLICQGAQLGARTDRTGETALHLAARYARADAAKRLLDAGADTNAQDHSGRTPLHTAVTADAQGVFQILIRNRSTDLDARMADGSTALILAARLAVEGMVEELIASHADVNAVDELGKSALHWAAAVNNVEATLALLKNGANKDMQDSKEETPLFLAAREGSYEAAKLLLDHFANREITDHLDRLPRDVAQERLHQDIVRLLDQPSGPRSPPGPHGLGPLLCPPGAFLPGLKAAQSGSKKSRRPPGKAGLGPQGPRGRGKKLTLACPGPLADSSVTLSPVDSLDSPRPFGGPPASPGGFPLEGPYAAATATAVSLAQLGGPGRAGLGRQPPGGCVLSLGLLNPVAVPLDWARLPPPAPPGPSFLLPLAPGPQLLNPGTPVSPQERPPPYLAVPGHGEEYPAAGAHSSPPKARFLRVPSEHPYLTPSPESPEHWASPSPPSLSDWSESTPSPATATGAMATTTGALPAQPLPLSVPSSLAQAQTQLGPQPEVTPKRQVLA
# protocolSummary: NOTCH3 binders on small-molecule microarray, primary screen, biochemical, 635/667 nm fluorescence (AID 1096)
# conditionInfo: NOTCH3 binding, 635 nm fluorescence, higher = more signal
resultType: composite z-score

{"compound": "O=C1c2ccccc2[C@](Cc2ccccc2I)(C(=O)NCCN2CCOCC2)[C@H](c2ccc(CO)cc2)N1Cc1ccccc1Cl", "reportedValue": 1.12}
{"compound": "COC(=O)[C@@]1(Cc2ccccc2)[C@H]2c3cc(C(=O)N4CCCC4)n(Cc4ccc(S(C)(=O)=O)cc4)c3C[C@H]2CN1C(=O)c1ccccc1", "reportedValue": 1.01}
{"compound": "C=C(CCCC)/C(=C/C[C@@H](OC(C)=O)c1ccc(OCCO)cc1)c1cnc2ccccc2c1", "reportedValue": 0.857}
{"compound": "O=C1NC(=O)C2C1C=CC(C(O)c1cc(C(F)(F)F)cc(C(F)(F)F)c1)N2Nc1ccccn1 (centres undefined)", "reportedValue": 0.429}

====

# protocolSummary: cell viability in Huh7 cells, primary screen, cytotoxicity control for HCV replication inhibitor project, CellTiter-Glo luminescence, basal, 48 h (AID 1143);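 further: Huh7 hepatoma cells carrying a hepatitis C replication reporter with no stimulus; test concentration not given here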
# conditionInfo: Huh7 HCV replicon, higher = more signal, called active from +8 up or from −8 down

{"structureAsSmiles": "C=C(C(=O)CC[C@@H](OC(=O)c1cccnc1)c1ccccc1OCCO)C(C)C", "z-score": -1.25}
{"structureAsSmiles": "COCCOC(=O)N1C(=O)[C@@]2(c3cc(C#CCC(C(=O)OC)C(=O)OC)ccc31)[C@H](C(=O)Nc1nc3ccccc3s1)[C@H]1C(=O)O[C@H](c3ccccc3)[C@H](c3ccccc3)N1[C@@H]2c1ccccc1OCCO", "z-score": -3.81}
{"structureAsSmiles": "CN(C)CCCCCCNC(=O)[C@H]1C[C@H]2C(=O)N3CCC[C@H]3C(=O)N2[C@H]1c1ccc(O)cc1", "z-score": -0.865}
{"structureAsSmiles": "CCCC=C(CCC)[C@@H](NC(=O)c1cccs1)c1ccc(C(F)(F)F)cc1", "z-score": -3.78}
{"structureAsSmiles": "COCC(=C=CC[C@@H](O)c1cccc(OCCO)c1)C[C@@H](O)c1ccccn1", "z-score": 0.0726}
{"structureAsSmiles": "O=C1c2ccccc2[C@](Cc2ccccc2I)(C(=O)NCCN2CCOCC2)[C@H](c2ccc(CO)cc2)N1Cc1ccccc1Cl", "z-score": -2.57}
{"structureAsSmiles": "COC(=O)[C@H](Cc1ccccc1)N[C@@H](/C=C/C1CC1)[C@H](O)Cc1ccccc1", "z-score": -0.389}
{"structureAsSmiles": "CCCC[C@@H]1C[C@H]1[C@@H](NC(=O)c1ccccc1)c1ccc(C(=O)OC)cc1", "z-score": -0.977}

====

# targetOfAssay: Left-right determination factor 2 (Homo sapiens)
# protocolSummary: LEFTY2 binders on small-molecule microarrays, primary screen, biochemical, small-molecule microarray, 635 nm fluorescence scan (AID 1110)
# conditionInfo: LEFTY2 binding, higher = more signal

{"molecule": "O=C1NC(=O)C2C1C=CC(C(O)c1cc(C(F)(F)F)cc(C(F)(F)F)c1)N2Nc1ccccn1 (stereo unspecified)", "composite z-score": 0.274}
{"molecule": "[N-]=[N+]=NCc1ccccc1[C@@H]1OC(c2ccc(OCCCO)cc2)=N[C@]1(Cc1ccccc1)C(=O)NCC(O)CO (stereo partly specified)", "composite z-score": -0.559}
{"molecule": "COC(=O)[C@@]1(Cc2ccc(F)cc2)[C@H]2c3cc(C(=O)N(C)C)n(Cc4ccc(Cl)c(C(F)(F)F)c4)c3C[C@H]2CN1C(=O)c1ccccc1", "composite z-score": -0.401}
{"molecule": "COCCOC(=O)N1C(=O)[C@@]2(c3ccccc31)[C@H](c1ccc(O)cc1)N1[C@H](c3ccccc3)[C@H](c3ccccc3)OC(=O)[C@H]1[C@@H]2C(=O)Nc1nc2ccccc2s1", "composite z-score": 0.118}
{"molecule": "C=CCOC(=O)[C@@H]1[C@H]2C(=O)O[C@H](c3ccccc3)[C@H](c3ccccc3)N2[C@H](c2ccc(OCCOC(=O)[C@H]3C[C@H]4C(=O)N5CCC[C@H]5C(=O)N4[C@H]3c3ccc(O)cc3)cc2)[C@@]12C(=O)Nc1ccc(I)cc12", "composite z-score": 0.928}
{"molecule": "O=C1O[C@@H](c2ccccc2)[C@@H](c2ccccc2)N2[C@@H](c3ccccc3OCCO)[C@]3(C(=O)Nc4ccc(C#CC5=CCCCC5)cc43)[C@@H](C(=O)N3CCCCCCC3)[C@H]12", "composite z-score": 1.74}

====

# protocolSummary: mitochondrial membrane potential change in A549 cells, profiling panel, cell-based, JC-1 fluorescence, basal, 24 h, 100 nL (AID 1138);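 further: A549 lung adenocarcinoma cells under basal conditions with no added stimulus; test concentration not given here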
# conditionInfo: higher = more signal
resultType: z-score

{"structureAsSmiles": "CC(C)C(=C=CC[C@H](O)c1ccc(OCCO)cc1)CCO", "reportedValue": 0.41}
{"structureAsSmiles": "CC(C)C[C@@H]1NC(=O)[C@@H]2C[C@H](C(=O)NCc3ccc(F)cc3)[C@H](c3cccc(OCCO)c3)N2C1=O", "reportedValue": 1.87}
{"structureAsSmiles": "COc1cc2c(cc1OC)CN(C(=O)[C@@H]1[C@H]3C(=O)O[C@H](c4ccccc4)[C@H](c4ccccc4)N3[C@H](c3ccc(O)cc3)[C@@]13C(=O)Nc1ccccc13)CC2", "reportedValue": -0.379}
{"structureAsSmiles": "C=C[C@H](CO[Si](CC)(CC)CC)N(Cc1ccc(OC(C)=O)c(OC)c1)S(=O)(=O)c1ccc(Br)cc1", "reportedValue": -0.202}
